The reported measurements were obtained from paper PMC8786932.

Target: T. gondii tachyzoites (type II ME49-FLuc)
Experiment: Luciferase-based tachyzoite growth assay
Type: cell-based, Toxoplasma gondii
Details: Fig S2 source data; read-out: T. gondii (EC50, Fig S2 source data)
Experimental: All assays were carried out in a 96-well plate format containing confluent HFF monolayers to support parasite growth. To avoid edge effects, only the inner 60 wells of each plate were used. All compounds described were provided by the Broad Institute as 10 mM stocks in 100% DMSO and stored at −80 °C prior to use. Pyrimethamine (Sigma-Aldrich) was prepared as 5 mM stock in 100% DMSO and stored at −20 °C prior to use. All statistical analyses were conducted using Prism 9 (GraphPad Software, Inc.). […]
quantityName: EC50 (nM)
Could you give me the number in nM? Just the number is fine.

# compound COc1ccc(NC(=O)N2CCCCN3C[C@H](c4ccc(C#Cc5ccccc5)cc4)[C@@H]3C2)cc1 ; its EC50 = 77

EC50 reported for this compound COc1ccc(NC(=O)N2CCCCCN3[C@H](CO)[C@H](c4ccc(C#Cc5ccccc5)cc4)[C@@H]3C2)cc1 : 169

EC50 for COc1ccc(NC(=O)N2C[C@@H](O)[C@@H](O)CN3[C@H](CN(C)C)[C@H](c4ccc(C#Cc5ccccc5)cc4)[C@@H]3C2)cc1 is 39.3
